Consider the following molecules and their measured pIC50 readings.
test: Free radical scavenging activity of DPPH was determined
Please express pIC50 as -log10 of the molar concentration.

Compound smiles: O=c1cc(-c2ccc(O)c(O)c2)oc2cc(O)cc(O)c12
Reading: 4.98

Field pIC50 (entry O=C1O[C@H]([C@@H](O)CO)C(O)=C1O ) reads 4.58

###

Reported IC50 by item:
test: Free radical scavenging activity of DPPH was determined

Compound smiles: COc1c(O)cc(O)c2c(=O)cc(-c3ccccc3)oc12
IC50: > 100 µM

Compound smiles: O=c1cc(-c2ccc(O)cc2)oc2cc(O)cc(O)c12
IC50: > 100 µM

Now for another entry.
get_value(item= O=c1cc(-c2ccccc2)oc2cc(O)cc(O)c12 , readout=IC50) returns > 100 µM
